Assign pEC50 to each entry below.
targetEntity: SIRT1 (Homo sapiens, UniProt Q96EB6)
Sequence (Q96EB6 whole entry): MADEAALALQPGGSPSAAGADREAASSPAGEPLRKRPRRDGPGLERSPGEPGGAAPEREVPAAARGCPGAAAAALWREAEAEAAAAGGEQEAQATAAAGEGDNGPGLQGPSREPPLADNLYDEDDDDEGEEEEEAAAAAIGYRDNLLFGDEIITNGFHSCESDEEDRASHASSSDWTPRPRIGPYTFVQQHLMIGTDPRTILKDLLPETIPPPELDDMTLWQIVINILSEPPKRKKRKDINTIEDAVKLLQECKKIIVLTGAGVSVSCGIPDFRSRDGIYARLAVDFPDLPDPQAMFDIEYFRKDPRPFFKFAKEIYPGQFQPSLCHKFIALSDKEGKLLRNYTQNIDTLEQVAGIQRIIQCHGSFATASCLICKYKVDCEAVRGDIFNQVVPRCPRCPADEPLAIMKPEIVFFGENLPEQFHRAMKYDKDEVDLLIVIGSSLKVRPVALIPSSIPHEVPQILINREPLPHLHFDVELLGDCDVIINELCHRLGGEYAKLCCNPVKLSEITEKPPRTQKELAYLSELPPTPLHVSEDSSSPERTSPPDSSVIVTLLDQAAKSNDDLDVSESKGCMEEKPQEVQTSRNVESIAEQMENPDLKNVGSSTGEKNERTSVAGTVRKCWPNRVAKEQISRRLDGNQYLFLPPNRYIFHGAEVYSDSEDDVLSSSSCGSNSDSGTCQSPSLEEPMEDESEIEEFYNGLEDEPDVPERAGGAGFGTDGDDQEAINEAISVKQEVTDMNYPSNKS
measurementProtocol: SIRT1 mass spectrometry (MS) based deacetylation assay
Format: biochemical
assaySetup: SIRT1 activation, mass spectrometry assay; read-out: ED50 MS ASSAY
pEC50: −log10 of the molar value.

Example entries begin here.
COc1cccc(OC)c1C(=O)Nc1cccc(-c2nc3ccccc3[nH]2)c1 = 4.30 to 5.30
COc1ccc(C(=O)Nc2ccc(-c3nc4ncccc4o3)cc2)c(OC)c1 = < 3.82
COc1ccc(C(=O)Nc2cccc(-c3csc(C)n3)c2)c(OC)c1 = 4.30 to 5.30
CC(=O)Nc1ccc(S(=O)(=O)Nc2cccc(-c3nc4ccncc4s3)c2)cc1 = 4.30 to 5.30
O=C(Nc1ccccc1-c1cn2c(CN3CCNCC3)csc2n1)c1cccc2cccnc12 = 3.82 to 4.00
COc1cccc(C(=O)Nc2ccccc2-c2cn3c(CN4CCNCC4)csc3n2)c1 = 4.30 to 5.30
COc1ccc(C(=O)Nc2cccc(-c3cccnc3)c2)cc1OC = 4.30 to 5.30
CN(C)c1cccc2c(S(=O)(=O)Nc3cccc(-c4nc5ccncc5s4)c3)cccc12 = 4.30 to 5.30

I have 4 compounds here; please give me pEC50 for each one.
1. COc1cc(C(=O)Nc2ccccc2-c2nc3ccncc3o2)cc(OC)c1OC
2. COc1cc(C(=O)Nc2ccccc2-c2cccs2)cc(OC)c1OC
3. COc1ccc(S(=O)(=O)Nc2cccc(-c3nc4ncccc4o3)n2)cc1OC
4. CC(C)(C)c1ccc(S(=O)(=O)Nc2ccccc2-c2nc3ncccc3o2)cc1

1. 4.30 to 5.30
2. 4.30 to 5.30
3. 4.30 to 5.30
4. < 3.82

----------
targetEntity: SIRT1 (Homo sapiens, UniProt Q96EB6)
measurementProtocol: SIRT1 mass spectrometry (MS) based deacetylation assay
Assay type: biochemical
assaySetup: SIRT1 activation, mass spectrometry assay; read-out: ED50 MS ASSAY
Assign EC50 to each entry below.

Example entries begin here.
Cc1csc2nc(-c3ccccc3NC(=O)c3cccc(N(C)C)c3)cn12 = < 5 µM
O=C(Nc1ccccc1-c1cn2c(CN3CCSC3)csc2n1)c1cnc2ccccc2n1 = < 5 µM
COc1cc(OC)cc(C(=O)Nc2ccccc2-c2nc3ccc(CN4CCNCC4)nc3s2)c1 = < 5 µM
COc1ccc(C(=O)Nc2cccc(-c3nc4ccncc4o3)c2)c(OC)c1 = < 5 µM

Tell me its EC50 given N#Cc1cccc(C(=O)Nc2ccccc2-c2cn3c(CN4CCNCC4)csc3n2)c1 as the entry.
5 to 50 µM

----------
targetEntity: UniProt:Q96EB6
measurementProtocol: SIRT1 mass spectrometry (MS) based deacetylation assay
Type: biochemical
assaySetup: SIRT1 activation, mass spectrometry assay; read-out: ED50 MS ASSAY
recordedMetric: EC50

Example entries begin here.
COc1ccc(C(=O)Nc2ccccc2-n2cccn2)cc1OC = > 150 µM
COc1cc(C(=O)Nc2cccc(-c3cn4ccc(C)cc4n3)c2)cc(OC)c1OC = < 5 µM
COc1ccc(S(=O)(=O)Nc2cccc(-c3nc4ccncc4s3)c2)cc1OC = 5 to 50 µM
COc1ccc(C(=O)Nc2ccccc2-c2nc3ccccn3c2CN(C)C)cc1OC = 51 to 100 µM
COc1ccc(NC(=O)c2cccc(-c3nc4ncccc4o3)c2)c(OC)c1 = 5 to 50 µM

I have 5 compounds here; please give me EC50 for each one.
1. COc1cc(NC(=O)c2cccc(-c3nc4ncccc4o3)c2)cc(OC)c1OC
2. Cc1cc(C(=O)Nc2ccccc2-c2cn3c(CN4CCNCC4)csc3n2)c(C)o1
3. CN(C)c1ccc(NC(=O)Nc2cccc(-c3nc4ncccc4o3)n2)cc1
4. CC(CC(=O)Nc1cccc(-c2nc3ccncc3s2)c1)Oc1ccccc1 (stereo not drawn)
5. O=C(Nc1ccccc1-c1nc2cc(CN3CCNCC3)cnc2s1)c1ccc2ncsc2c1

1. 5 to 50 µM
2. 5 to 50 µM
3. > 150 µM
4. 5 to 50 µM
5. 5 to 50 µM

I have 4 compounds here; please give me EC50 for each one.
1. COc1cc(F)cc(C(=O)Nc2ccccc2-c2cn3c(CN4CCNCC4)csc3n2)c1
2. COc1cc(C(=O)Nc2cccc(-c3nc4ccccc4[nH]3)n2)cc(OC)c1OC
3. COc1ccc(C(=O)N2CCCN(c3nc4ccccc4o3)CC2)c(OC)c1
4. Cn1nc(C(C)(C)C)cc1C(=O)Nc1cccc(-c2nc3ccncc3s2)c1

5 to 50 µM
< 5 µM
> 150 µM
< 5 µM

I have 8 compounds here; please give me EC50 for each one.
1. COc1cc(OC)cc(C(=O)Nc2sccc2-c2nc3ccccc3s2)c1
2. COc1cc(OC)cc(C(=O)Nc2cccc(-c3nc4cnccc4o3)c2)c1
3. COc1ccc(C(=O)Nc2ccccc2-c2cn3ccsc3n2)cc1OC
4. O=C(Nc1ccccc1-c1cn2c(CN3CC(F)(F)C3)csc2n1)c1cnc2ccccc2n1
5. COc1cc(C(=O)Nc2ccccc2-c2nc3ncccc3o2)cc(OC)c1OC
6. COc1cc(C(=O)Nc2cccc(-c3cn4cccnc4n3)c2)cc(OC)c1OC
7. O=C(Nc1ccccc1-c1cn2c(CN3CCSCC3)csc2n1)c1cnc2ccccc2n1
8. COc1ccc(C(=O)Nc2ccc(-c3nc4ncccc4s3)cc2)c(OC)c1

["< 5 µM", "5 to 50 µM", "< 5 µM", "5 to 50 µM", "< 5 µM", "< 5 µM", "< 5 µM", "> 150 µM"]

I have 2 compounds here; please give me EC50 for each one.
1. COc1ccc(C(=O)Nc2cccc(-c3nc4cnccc4s3)c2)c(OC)c1
2. COc1ccc(C(=O)Nc2ccc(-c3nc4ccccc4[nH]3)cc2)c(OC)c1

< 5 µM
< 5 µM
